Target: human PPARγ receptor (Homo sapiens, UniProt P37231)
Construct: corresponding to Ser204-Tyr506 for human PPARγ1 receptor and human PPARγ2; expressed in transfected cells; host or cells: CV-1 cells (pSG5-based expression vector)
Sequence (P37231 204-505 limits assumed): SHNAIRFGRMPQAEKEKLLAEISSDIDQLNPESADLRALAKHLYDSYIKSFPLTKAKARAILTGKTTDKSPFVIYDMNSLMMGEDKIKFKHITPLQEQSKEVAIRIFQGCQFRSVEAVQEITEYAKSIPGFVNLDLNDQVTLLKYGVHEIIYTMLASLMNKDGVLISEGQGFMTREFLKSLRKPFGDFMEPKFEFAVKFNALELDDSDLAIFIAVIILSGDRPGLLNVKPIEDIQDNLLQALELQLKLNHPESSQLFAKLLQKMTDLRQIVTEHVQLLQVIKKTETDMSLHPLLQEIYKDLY
Assay: Luciferase reporter assay of PPARγ agonist activity (Gal4-PPARγ chimera receptor in CV-1 cells)
Type: cell-based
Conditions: CV-1, 0.1 μM compound, luciferase activity with 1 μM Pioglitazone taken as 100, read-out: PPAR γ agonist activity, relative activity
Where a name gives a salt, the structure may show the parent alone.
measurementType: Emax at 0.1 µM (%)
Write it as a number; the unit % goes unstated.

Task item: Requested read-out: Emax at 0.1 µM. Entry: CCOC(=O)C(Cc1cccc(OCc2cnc3ccc(OC)cc3c2OC(C)C)c1)C(=O)OCC [Example 27 (128), hydrochloride]
Reply: 1.2

Task item: Requested read-out: Emax at 0.1 µM. Entry: CCOC(Cc1ccc(OCc2cccc3cccnc23)cc1)C(=O)O (stereo not drawn) [Example 16 (32)]
Reply: 1.6

Task item: Requested read-out: Emax at 0.1 µM. Entry: CCOC(Cc1ccc(OC)c(OCc2cnc3ccc(OC)cc3c2OC(C)C)c1)C(=O)O (stereo not drawn) [Example 21 (118)]
Reply: 1.4

Task item: Requested read-out: Emax at 0.1 µM. Entry: COC(=O)C(Cc1ccc(OCc2cnc3ccc(OC)cc3c2OC(C)C)cc1)C(=O)OC [Example 22 (120), hydrochloride]
Reply: 3.5

Task item: Requested read-out: Emax at 0.1 µM. Entry: COc1ccc2ncc(COc3ccc(/C=C(\Sc4ccccc4)C(=O)O)cc3)c(OC(C)C)c2c1 [Example 18 (112)]
Reply: 0.5

Task item: Requested read-out: Emax at 0.1 µM. Entry: CCOC(=O)C(Cc1ccc(OCc2cnc3ccc(OC)cc3c2OC(C)C)cc1)OCC (stereo not drawn) [Example 1 (101)]
Reply: 98.6

====

target: human PPARγ receptor (Homo sapiens, UniProt P37231); construct: corresponding to Ser204-Tyr506 for human PPARγ1 receptor and human PPARγ2; expressed in transfected cells; host or cells: CV-1 cells (pSG5-based expression vector); assay: Luciferase reporter assay of PPARγ agonist activity (Gal4-PPARγ chimera receptor in CV-1 cells); type: cell-based; details: CV-1, 1 μM compound, luciferase activity with 1 μM Pioglitazone taken as 100, read-out: PPAR γ agonist activity, relative activity
Structures can show the parent of a compound that is named as a salt.
measurementType: Emax at 1 µM (%)
Write it as a number; the unit % goes unstated.

Task item: Requested read-out: Emax at 1 µM. Entry: CCCCCCCCOc1c(COc2ccc(CC(OCC)C(=O)O)cc2)cnc2ccc(OC)cc12 (stereo not shown)
Reply: 63.3

Task item: Requested read-out: Emax at 1 µM. Entry: CCOC(Cc1cccc(OCc2cnc3ccc(OC)cc3c2OC(C)C)c1)C(=O)O (stereo not shown)
Reply: 91

Task item: Requested read-out: Emax at 1 µM. Entry: CCOC(Cc1ccc(OCc2cnc3cc(C(F)(F)F)ccc3c2OC(C)C)cc1)C(=O)O (stereo not shown)
Reply: 60.4

Task item: Requested read-out: Emax at 1 µM. Entry: COC(=O)C(Cc1ccc(OCc2cnc3ccc(OC)cc3c2OC(C)C)cc1)C(=O)OC [Example 22 (120), hydrochloride]
Reply: 62.3

Task item: Requested read-out: Emax at 1 µM. Entry: CCOC(=O)C(Cc1ccc(OC)c(OCc2cnc3ccc(OC)cc3c2OC(C)C)c1)C(=O)OCC [Example 28 (129), hydrochloride]
Reply: 2.1

Task item: Requested read-out: Emax at 1 µM. Entry: CCOC(Cc1ccc(OCc2cnc3ccc(CC)cc3c2OC(C)C)cc1)C(=O)O (stereo not shown)
Reply: 140

Task item: Requested read-out: Emax at 1 µM. Entry: CCOC(Cc1ccc(OC)c(OCc2cnc3ccc(OC)cc3c2OC(C)C)c1)C(=O)O (stereo not shown)
Reply: 1.9

Task item: Requested read-out: Emax at 1 µM. Entry: CCOC(Cc1ccc(OCc2cnc3cc(OC)c(OC)cc3c2OC(C)C)cc1)C(=O)O (stereo not shown)
Reply: 13

Task item: Requested read-out: Emax at 1 µM. Entry: COc1ccc2ncc(COc3ccc(/C=C(\Sc4ccccc4)C(=O)O)cc3)c(OC(C)C)c2c1
Reply: 22.2

Task item: Requested read-out: Emax at 1 µM. Entry: CCOC(Cc1ccc(OCc2cnc3c(Cl)cccc3c2OC(C)C)cc1)C(=O)O (stereo not shown)
Reply: 140

Task item: Requested read-out: Emax at 1 µM. Entry: CCOC(Cc1ccc(OCc2cccc3cccnc23)cc1)C(=O)O (stereo not shown)
Reply: 71.8

Task item: Requested read-out: Emax at 1 µM. Entry: CCC(=O)C(Cc1ccc(OCc2cnc3ccc(OC)cc3c2OC(C)C)cc1)C(=O)OC (stereo not shown) [Example 23 (137), hydrochloride]
Reply: 30.5

Task item: Requested read-out: Emax at 1 µM. Entry: CCCCNC(=O)C(Cc1ccc(OCc2cnc3ccc(OC)cc3c2OC(C)C)cc1)OCC (stereo not shown)
Reply: 1.1

Task item: Requested read-out: Emax at 1 µM. Entry: CCOC(Cc1ccc(OCc2cnc3ccc(OC)cc3c2OC(C)C)cc1)C(N)=O (stereo not shown)
Reply: 114

Task item: Requested read-out: Emax at 1 µM. Entry: CCOC(Cc1ccc(OCc2cnc3c(C(F)(F)F)cccc3c2OC(C)C)cc1)C(=O)O (stereo not shown)
Reply: 76

Task item: Requested read-out: Emax at 1 µM. Entry: CCOC(Cc1ccc(OCc2cnc3ccc(OC)cc3c2OC(C)C)cc1)C(=O)O (stereo not shown)
Reply: 114
